Study System: CYP2C19 (Homo sapiens, UniProt P33261)
Sequence (P33261 whole entry): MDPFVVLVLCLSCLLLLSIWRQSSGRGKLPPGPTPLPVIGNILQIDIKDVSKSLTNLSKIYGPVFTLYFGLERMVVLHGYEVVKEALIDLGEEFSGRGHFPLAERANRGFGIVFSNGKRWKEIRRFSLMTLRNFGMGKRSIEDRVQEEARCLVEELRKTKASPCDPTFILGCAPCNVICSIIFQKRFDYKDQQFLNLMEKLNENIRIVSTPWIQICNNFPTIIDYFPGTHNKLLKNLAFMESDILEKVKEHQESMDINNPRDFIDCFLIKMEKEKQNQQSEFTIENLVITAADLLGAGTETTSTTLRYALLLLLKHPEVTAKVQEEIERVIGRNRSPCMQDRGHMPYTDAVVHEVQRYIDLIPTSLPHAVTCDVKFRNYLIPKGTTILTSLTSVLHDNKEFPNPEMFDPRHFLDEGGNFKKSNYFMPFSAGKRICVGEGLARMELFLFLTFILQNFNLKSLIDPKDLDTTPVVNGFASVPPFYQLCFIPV
Metric: IC50 (µM)
Write the value in µM as a bare number.

Input line: Give measured IC50 for O=C(Nc1ccc(C(F)(F)F)cc1)c1ccc(-c2ncccc2Cl)cc1 [Compound 18] (CYP2C19 (Homo sapiens, UniProt P33261)).
Output line: 26.9

###

Assay Info: Pharmacokinetic profile after intravenous and oral administration
Assay type: in vivo
Conditions Used: male, Sprague-Dawley, rat, plasma; rats, IV 1 mg/kg and oral 5 mg/kg
Metric: Cmax (nM)
Write the value in nM as a bare number.

Input line: Quick one: give measured Cmax for O=C(Nc1ccc(C(F)(F)F)cc1)c1ccc(-c2ncccc2Cl)cc1 [Compound 18]
Output line: 1750

###

Assay Info: Plasma protein binding by equilibrium dialysis, human plasma
Type: in vitro ADME
Conditions Used: human plasma in sodium citrate, pH 7.4, 37° C., read-out: human plasma protein binding (% Bound)
Metric: fraction unbound at 22 h, 10 µM

Input line: Quick one: give measured fraction unbound at 22 h, 10 µM for O=C(Nc1ccc(C(F)(F)F)cc1)c1ccc(-c2ncccc2Cl)cc1 [Compound 18]
Output line: < 0.002

###

Study System: CYP1A2 (Homo sapiens, UniProt P05177)
Sequence (P05177 whole entry): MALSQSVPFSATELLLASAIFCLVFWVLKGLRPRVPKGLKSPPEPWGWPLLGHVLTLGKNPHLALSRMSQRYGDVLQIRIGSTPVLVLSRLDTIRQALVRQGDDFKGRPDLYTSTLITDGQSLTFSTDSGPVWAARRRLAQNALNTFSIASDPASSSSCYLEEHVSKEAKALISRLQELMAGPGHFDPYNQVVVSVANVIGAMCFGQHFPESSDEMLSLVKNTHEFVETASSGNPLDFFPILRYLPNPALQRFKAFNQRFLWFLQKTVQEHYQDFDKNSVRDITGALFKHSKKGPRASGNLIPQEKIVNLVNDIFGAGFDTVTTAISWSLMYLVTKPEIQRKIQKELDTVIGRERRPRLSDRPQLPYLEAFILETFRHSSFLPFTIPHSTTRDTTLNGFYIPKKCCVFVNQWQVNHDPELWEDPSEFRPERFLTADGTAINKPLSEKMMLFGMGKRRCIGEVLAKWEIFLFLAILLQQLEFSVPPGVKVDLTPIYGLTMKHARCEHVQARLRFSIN
Metric: IC50

Input line: Give measured IC50 for `O=C(Nc1ccc(C(F)(F)F)cc1)c1ccc(-c2ncccc2Cl)cc1` (CYP1A2 (Homo sapiens, UniProt P05177)).
Output line: 97.5 µM

###

Assay Info: Pharmacokinetic profile after intravenous and oral administration
Type: in vivo
Conditions Used: male, Sprague-Dawley, rat, plasma; rats, IV 1 mg/kg and oral 5 mg/kg; read-out: Oral Bioavailability (%F)
Metric: bioavailability
Reply with the number and its unit after it.

Input line: Quick one: give measured bioavailability for `O=C(Nc1ccc(C(F)(F)F)cc1)c1ccc(-c2ncccc2Cl)cc1`
Output line: 30.1%

###

Assay Info: Aqueous equilibrium solubility
Type: physicochemical
Conditions Used: pH 2.0 isotonic NaCl/HCl solution, simulated gastric fluid, thermodynamic from solid; pH 2.0 isotonic NaCl/HCl, room temperature
Metric: solubility thermodynamic

Input line: Quick one: give measured solubility thermodynamic for O=C(Nc1ccc(C(F)(F)F)cc1)c1ccc(-c2ncccc2Cl)cc1 [Compound 18]
Output line: < 0.2 µg/mL

###

Assay Info: Pharmacokinetic profile after intravenous and oral administration
Type: in vivo
Conditions Used: male, Sprague-Dawley, rat, plasma; rats, IV 1 mg/kg and oral 5 mg/kg; read-out: Volume of distribution (Vd)
Metric: Vd (L/kg)
Write the value in L/kg as a bare number.

Input line: Quick one: give measured Vd for `O=C(Nc1ccc(C(F)(F)F)cc1)c1ccc(-c2ncccc2Cl)cc1`
Output line: 2.82

###

Assay Info: Pharmacokinetic profile after intravenous and oral administration
Assay type: in vivo
Conditions Used: male, Sprague-Dawley, rat, plasma; rats, IV 1 mg/kg and oral 5 mg/kg; read-out: Clearance (Cl) (converted)
Metric: clearance (mL/min/kg)
Write the value in mL/min/kg as a bare number.

Input line: Quick one: give measured clearance for O=C(Nc1ccc(C(F)(F)F)cc1)c1ccc(-c2ncccc2Cl)cc1 [Compound 18]
Output line: 8.83

###

Assay Info: Pharmacokinetic profile after intravenous and oral administration
Type: in vivo
Conditions Used: male, Sprague-Dawley, rat, plasma; rats, IV 1 mg/kg and oral 5 mg/kg
Metric: Tmax (h)
Write the value in h as a bare number.

Input line: Quick one: give measured Tmax for `O=C(Nc1ccc(C(F)(F)F)cc1)c1ccc(-c2ncccc2Cl)cc1`
Output line: 3
